Test system: G. duodenalis BRIS/91/HEPU/1279
Assay: Primary Giardia screen at 10 µM (live-cell imaging, automated counting)
Type: cell-based, Giardia duodenalis
Conditions: 48 h, first singlicate assay
experimental readout: % Inhibition n=1 48h (%)
Report the value in % with no unit label.

Reference set (10 entries):
Requested read-out: % Inhibition n=1 48h. Entry: COc1ccc(C2CCCN2C(=O)c2cnn(-c3ccc(C(F)(F)F)cn3)c2C)cc1 (stereo not drawn)
35.2

For Cc1ccc(C)c(OC2CCN(c3ncnc4nc[nH]c34)CC2)c1 then?
12.5

Now the same for COc1ccc(C(=O)c2c(N)c(-c3nc(-c4cc(OC)ccc4OC)cs3)c3ccccn23)cc1
0.0

Then Cc1ccc(CNC(=O)N2CCCN(c3ncccc3-c3nc(C4CC4)no3)CC2)cc1 ?
34.3

Record: CCn1cc(CN2CCC(OCc3nc(C4CC4)no3)CC2)cn1
0.0

Moving on to the next compound: COc1ccc(NC(=O)N2CCN(CC3CCCCN3C)CC2)cn1 (stereo not drawn)
0.0

Same lookup for CCc1nc(-c2cc(S(=O)(=O)NCc3ccc(F)c(Cl)c3)c(C)s2)cs1 , please.
50.2

Then this compound: CN(C)C(=O)Cc1nc(CN2CCc3c(ncn3C)C2)cs1
0.0

What about this compound? COc1ccccc1NC(=O)N1Cc2c(sc3c2CCN(C)C3)-n2cccc2C1C (stereo not drawn)
24.5

// repeat for COc1ccc(NC(=O)C2CCn3c(nc4ccccc43)C2)cc1Cl (stereo not drawn) and report
0.0

// next entry
Fill in: % Inhibition n=1 48h of CCS(=O)(=O)c1nc2ccc(NS(=O)(=O)c3ccc4c(c3)OCCO4)cc2s1 is ___
0.0

----------
A collection of molecules and their measured % Inhibition n=1 48h
Test system: G. duodenalis BRIS/91/HEPU/1279
Test: Primary Giardia screen at 10 µM (live-cell imaging, automated counting)
Assay type: cell-based, Giardia duodenalis
Settings: 48 h, first singlicate assay
Respond with the bare value in %.

Here is how some molecules turned out for % Inhibition n=1 48h.
Given the entry CCC(=O)N1CCC2(CC1)N=C(c1cccc(OC)c1)C(=O)N2 , report its measured % Inhibition n=1 48h.
18.9

Cool, now O=c1c2cc(-c3cccs3)nn2ccn1Cc1nc(-c2cccc(F)c2)no1
8.1

Also need Cc1ccccc1C1CCN(C(=O)C2CCCC2)C1 (stereo not drawn) , thanks.
7.3

Then what about the molecule COc1ccc(Nc2nc(-c3nnn(-c4ccc(F)cc4F)c3C)ns2)cc1OC ?
52.7

New cases:
If you can, please state the reported % Inhibition n=1 48h value of CC12CC(c3ccccc3O1)N(C(=O)c1cccc(F)c1)C(=O)N2c1ccccc1 (stereo not drawn) .
0.0

Please answer likewise for CN(Cc1ccccc1)c1c2c(nc3nncn13)CCC2
14.3

Please do the same for c1ccc(-c2cc(CN3CCOC(Cn4cncn4)C3)on2)cc1 (stereo not drawn) as well.
6.8

// same read-out, input: CCc1noc2nc(C)nc(N3CCCC(C(=O)O)C3)c12 (stereo not drawn)
0.0

Record: O=C(NCCCN1CCCCC1)c1cc(-c2cccs2)nc2ccccc12
13.3

----------
Tested on: Acinetobacter baumannii (ATCC 19606)
Assay: Anti-bacterial activity assay
Format: cell-based
Details: ATCC19606, 50 µM
Measured inhibition at 50 µM, listed per entry.
Field note: include the unit after the figure.

Worked cases, inhibition at 50 µM given:
// lookup inhibition at 50 µM for O=[N+]([O-])c1cc(F)ccc1Sc1nnc(N2CCOCC2)s1 [SN00781107, Fc1ccc(Sc2nnc(s2)N2CCOCC2)c(c1)N(=O)=O]
3.43%

What do we get for COc1ccc(Nc2cc(C)nc(N3CCN(C(=O)Nc4cccc(OC)c4)CC3)n2)cc1 ?
16.8%

Record: COc1ccc(NC(=O)c2ccc(-c3cc(NC4CCCCC4)ncn3)cc2)cc1
-0.4%

Could you do the same for COc1cc(OC)c(C2=CCN(C(=O)c3ccc(C)s3)CC2)c(OC)c1 , please?
2.57%

Others:
// inhibition at 50 µM lookup, key: Cc1cc2[nH]c(C(=O)Nc3ccccc3C)c(CN3CCOCC3)c2s1
4.92%

Note, next up: CC(=O)Nc1ccc([N+](=O)[O-])c2nonc12
6.26%

Same question for Cc1ccc(C(=O)Nc2cc(-c3nc(C)cs3)sc2C)cc1 [SN00798457, Cc1ccc(cc1)C(=O)Nc1cc(sc1C)c1scc(C)n1] please.
-2.12%

Continue with O=C(Nc1nc(-c2ccco2)c(-c2ccco2)s1)c1ccccc1
23.4%

Also O=S1(=O)CCC(n2cc(-c3cnn(-c4ccccc4)c3)cn2)C1 (stereo not drawn) , if possible.
-4.28%

Queued: Cc1ccc(NC(=O)c2cc3c(Cl)ccc4c3n2CCO4)cc1
20.8%

What would you report for CN(C)CCn1cc(C(=O)c2cc(Cl)ccc2O)cc1-c1nc2ccccc2c(=O)[nH]1 ?
-8.73%

----------
Test system: G. duodenalis BRIS/91/HEPU/1279
Assay: Primary Giardia screen at 10 µM (live-cell imaging, automated counting)
Format: cell-based, Giardia duodenalis
Conditions: 48 h, first singlicate assay
Criterion: % Inhibition n=1 48h strictly less than 6%. Met: 1. Not met: 0.

Past entries and their recorded results:
Consider Cc1ccc(S(=O)(=O)n2ccn(C(=O)c3ccccc3C)c2=O)cc1 . Does its % Inhibition n=1 48h lie strictly below 6%?
1

Can you handle CS(=O)(=O)c1ccc(-c2csc(-n3nccc3C(F)(F)F)n2)cc1 next?
0

Same read-out for O=C(Cn1c(=O)c2c(ncn2C2CCCC2)n(Cc2ccccc2)c1=O)Nc1cc(Cl)ccc1F ?
1

Continuing:
Quick check: % Inhibition n=1 48h of CN1CCN(CC2CCN(c3ccc([N+](=O)[O-])cc3Cl)CC2)CC1 under 6%?
0

Now try CC1CN(c2nc3c(c(=O)[nH]c(=O)n3C)n2CC(=O)O)CC(C)O1 (stereo not drawn) .
1

----------
Items are presented alongside their recorded % Inhibition n=1 48h.
Tested on: G. duodenalis BRIS/91/HEPU/1279
Experiment: Primary Giardia screen at 10 µM (live-cell imaging, automated counting)
Assay type: cell-based, Giardia duodenalis
Details: 48 h, first singlicate assay
Number only, in %; omit the unit.

// solved cases for % Inhibition n=1 48h follow
Would you kindly share the measured % Inhibition n=1 48h for CN1CCCc2cc(C(=O)NCc3cccs3)sc21 ?
0.0

Please do the same for COc1c(C(=O)Nc2ccc(C)cc2)oc2ccc(NC(=O)c3ccc(C)s3)cc12 as well.
19.9

Quick one: CSc1ccc(CNC(=O)c2cn3cc(C)ccc3n2)cc1
26.2

And what about the molecule COc1ccccc1N1CCN(C(=O)c2cc(C3CC3)n[nH]2)CC1 ?
0.0

How about Cc1cc2n(n1)CCCN2CC(=O)N1CCN(c2cccc(Cl)c2)CC1 ?
5.3

Further cases:
Fill in: % Inhibition n=1 48h of Cc1ccc(S(=O)(=O)C2(C(=O)Nc3cn[nH]c3)CCC2)cc1 is ___
0.0

Can you check CCOC(=O)N1CCc2c(nc(-c3ccc(C)cc3)n(CC(=O)Nc3ccc(Cl)cc3)c2=O)C1 next?
41.5

Try this molecule too: CN(C)[C@@H]1CN(C(=O)c2ccco2)CC[C@]1(O)c1ccccc1
3.1

Query CCCNC(=O)N1CCN(Cc2nc3cccnc3n2-c2ccc(CC)cc2)CC1 next
0.0

----------
Test system: G. duodenalis BRIS/91/HEPU/1279
Test: Primary Giardia screen at 10 µM (live-cell imaging, automated counting)
Format: cell-based, Giardia duodenalis
Settings: 48 h, first singlicate assay
experimental readout: % Inhibition n=1 48h

Quick one: % Inhibition n=1 48h of COc1ccc(-n2nc(C(=O)NCc3ccc(C)cc3)c3c4ccccc4n(C)c3c2=O)cc1 [SN00785076] ?
5.1%

Would you kindly look at the next entry?
Query (compound): COc1cc(OC)c(NC(=O)N2CCN(c3nc4ccccc4n3C)CC2)cc1Cl [SN00794807] ; field requested: % Inhibition n=1 48h
0.0%

----------
System: G. duodenalis BRIS/91/HEPU/1279
Test: Primary Giardia screen at 10 µM (live-cell imaging, automated counting)
Format: cell-based, Giardia duodenalis
Conditions: 48 h, first singlicate assay
experimental readout: % Inhibition n=1 48h
In your response, put the unit directly after the numeric value.

Fill in the blank: the reported % Inhibition n=1 48h of Cc1nc2sccn2c1-c1nc(-c2ccccc2)c(C(=O)c2ccc3c(c2)NC(=O)CO3)s1 [SN00776123] is ____.
7.0%

Input COc1c(C(=O)Nc2ccccc2)oc2ccc(NC(=O)C3CCCCC3)cc12 [SN00798797]
3.8%

----------
Test system: G. duodenalis BRIS/91/HEPU/1279
Assay: Primary Giardia screen at 10 µM (live-cell imaging, automated counting)
Type: cell-based, Giardia duodenalis
Settings: 48 h, first singlicate assay
experimental readout: % Inhibition n=1 48h (%)
Write the number in % without appending the unit.

Past entries and their recorded results:
Endpoint output: % Inhibition n=1 48h of Cc1ccccc1-n1nc(C(=O)N(C)Cc2ccco2)nc1CCc1ccccc1 [SN00802642] . Value?
5.4

Request: O=C(CCc1ccc(F)cc1)Nc1ccn(Cc2ccccn2)n1 [SN00775953]
0.0

Likewise for O=C(c1cc(=O)[nH]c2ccccc12)N1CCN(Cc2ccc3c(c2)OCO3)CC1 [SN00774920] ?
0.0

Another compound to look at: Cc1ccc(-c2noc(-c3cccc(S(=O)(=O)N4CCN(c5ccc(F)cc5)CC4)c3)n2)cc1 [SN00797676]
0.0

// same read-out, input: CCCS(=O)(=O)c1nc2ccc(NS(=O)(=O)CCc3ccccc3)cc2s1 [SN00797950]
20.2

New cases:
Query (compound): Cc1oc(C2CCC2)nc1C(=O)NC(C)c1ccccn1 (stereo not drawn) [SN00802442] ; field requested: % Inhibition n=1 48h
17.0

How about O=C(C1CC=CCC1)N1CCN(S(=O)(=O)c2c[nH]c3ncccc23)CC1 (stereo not drawn) [SN00781077] ?
7.5

Another: CCN1CCN(c2ccc(-c3nc(-c4cccc(F)c4)no3)cn2)CC1 [SN00796649]
48.2

Entry Cc1ccc(-n2nc3c(c2NC(=O)COc2ccccc2)CS(=O)(=O)C3)c(C)c1 [SN00802785] please
16.6

Same again, this time with Cc1c(C(=O)NCCCN2CCOCC2)oc2c1-c1nn(Cc3ccc(Cl)cc3)cc1CC2 [SN00787421]
1.0

Proceed to CCCc1nnc(C(=O)Nc2cccc(C(=O)NCc3c[nH]nc3C)c2)s1 [SN00790723]
0.0

Ok, now CCCCOc1ccc(CNC(=O)C2CCN(c3nccc4sc(C)cc34)CC2)cc1 [SN00797785]
27.9

Also need CC(=O)c1cc2c(cc1NC(=O)c1cn(-c3ccc(F)cc3)nn1)OCO2 [SN00786071] , thanks.
7.4

Also check COc1ccc(-c2nc3sccn3c2Nc2ccc3c(c2)OCO3)cc1 [SN00784546]
0.0

Please give the result for COc1ccc(CC(=O)NC2CCN(c3nc4c(s3)c(C)nn4-c3cccc(C)c3)CC2)cc1 [SN00803147] too.
1.5

Then this compound: CCN(CC)C(=O)CN1C(=O)CN=C(c2ccc(OC)cc2)c2c1sc1c2CCCC1 [SN00791881]
0.0

# iterate: Cc1c(CN(C)C(=O)c2cc3nc(-c4cccs4)cc(C(F)(F)F)n3n2)cnn1C [SN00783696]
0.0

Also COc1ccccc1-c1nc(C2CCCN(C(=O)c3ccc(C(C)C)cc3)C2)no1 (stereo not drawn) [SN00798647] , if possible.
0.0
